Attribution: PubChem BioAssay (NCI)

Experiment: NCI Yeast Anticancer Drug Screen. Data for the mlh1 rad18 strain (AID 175)
Conditions: S. cerevisiae mlh1 rad18 strain growth inhibition; at 5.0 µM (retest, dose inferred, filed as 0.5); active compounds read high
Compounds without any hit were thinned out: in the full panel of roughly 79,000, 15% have a hit.

compound: COc1ccc(-c2cc(-c3ccc4c(c3)CC(C)O4)nc(N)n2)cc1 (stereo unspecified)
scale_unit: %
growth inhibition: -16

compound: Cc1c2cc[n+]([O-])cc2c(C)c2c1oc1ccccc12
scale_unit: %
growth inhibition: 22

compound: Cc1cc(Cl)c2cc(Cc3ccc(Br)cc3)ccc2n1
scale_unit: %
growth inhibition: 15

compound: N#CC(Nc1cccc(C(F)(F)F)c1)c1ccccc1C(F)(F)F (stereo unspecified)
scale_unit: %
growth inhibition: -12

compound: CC(O)c1cccnc1 (stereo unspecified)
scale_unit: %
growth inhibition: -9

compound: N#CC1C(=O)NC(=O)C(C#N)C1c1ccc(Cl)c(Cl)c1 (stereo unspecified)
scale_unit: %
growth inhibition: -2

* * *

Assay: NCI Yeast Anticancer Drug Screen. Data for the mlh1 rad18 strain (AID 175)
Conditions: S. cerevisiae mlh1 rad18 strain growth inhibition; at 5.0 µM (retest, dose inferred, filed as 0.5); active compounds read high
The panel holds about 79,000 compounds, 15% with a hit somewhere; the sample as a whole holds those more often.
Recorded growth inhibition by entry
experimental_endpoint: growth inhibition (%)

compound: Cc1ccc(NN(C)c2ccc(C)cc2)cc1
readout_value: -3

compound: CCC(c1ccc(Cl)cc1)C(C#N)c1ccc(Cl)cc1 (stereo unspecified)
readout_value: 2

compound: COC(=O)/C=C(\C)Nc1ccc(Cc2ccc(Cl)cc2)cc1
readout_value: 9

compound: CCOC(=O)C(C#N)c1cc(O)c(C(C#N)C(=O)OCC)cc1O (stereo unspecified)
readout_value: -2

compound: Cc1nc(Nc2ccc(Cl)cc2)sc1C(=O)Nc1cccc2c(=O)[nH][nH]c(=O)c12
readout_value: 14

compound: O=c1c2ccccc2sc2c([N+](=O)[O-])ccc(NCCNCCO)c12
readout_value: 35

* * *

Test: NCI Yeast Anticancer Drug Screen. Data for the mlh1 rad18 strain (AID 175)
Details: S. cerevisiae mlh1 rad18 strain growth inhibition; at 50.0 µM
Experimental: Growth inhibition of yeast strains with defined genetic alterations is measured as a screen for potential anti-cancer activity. Selected strains with alterations in DNA damage repair or cell cycle control were exposed to compounds and growth inhibition was measured relative to vehicle treated controls. The strain used in this assay is mlh1 rad18
This is part of a sample that, as a whole, favours compounds with a hit. Of some 79,000 tested, about 15% had one in any assay. The source made the active and inactive calls. Cut-off read from the data, not from the text of the source: active = growth inhibition above about 70%; inactive = the rest. Where a SMILES comes first, the peptide text is derived from it. [ ]: non-standard residue; d: D form. The star is where a group is joined. Phe(4-NO2) = N[CH](Cc1ccc([N+](=O)[O-])cc1)C(=O)O; Boc = CC(C)(C)OC(=O)*
Classes used: active, inactive

molecule: COc1ccc(/C=C/C(C)=N/NC(=S)NCC(C)C)cc1
category: inactive
//
molecule: CCN(CC)CCNc1ccc(OC)c2cccnc12
category: active
//
molecule: Cc1cc2nc3c(C)c4ccccc4c(C)n3c2cc1C
category: active
//
molecule: CC1=CC(C)(C)Nc2cc(N)ccc21
category: inactive
//
molecule: O=C1c2ccccc2S(=O)(=O)CC1Br (stereo not drawn)
category: active
//
molecule: Fc1ccc2nncc(SCc3ccccc3)c2c1
category: active
//
molecule: Cc1cc(NC(=S)SCc2ccc(Cl)cc2)c([N+](=O)[O-])cc1C
category: active
//
molecule: CC(=O)Nc1ccc(S(=O)(=O)/N=C2\C=CC(=O)c3ccccc32)cc1
category: active
//
molecule: C=CCN1/C(=C/C=C\c2sc3ccccc3[n+]2CC=C)Sc2ccccc21
category: active
//
molecule: O=C1C=CC(=C(c2ccccc2)c2ccc(O)cc2)C=C1
category: active
//
molecule: CCC(c1ccc(O)cc1)C(CC)c1ccc(O)c(CN(C)C)c1 (stereo not drawn)
category: inactive
//
molecule: Cc1cccc2c(Nc3ccc(NS(C)(=O)=O)cc3)c3ccccc3nc12
category: inactive
//
molecule: CC(N)C1C(C)CC2C3CC=C4CC(O)CCC4(C)C3CCC21C (stereo not drawn)
category: inactive
//
molecule: N=C1C=CC(=C(c2ccc(N)cc2)c2ccc(N)cc2)C=C1
category: active
//
molecule: COc1ccc(OC)c(/C=C/NC=O)c1
category: inactive
//
molecule: CCOC(=O)C(=N\Nc1ccccc1C)/C(C)=N\NC(N)=S
category: active
//
molecule: O=C1C=C(Cl)C(=O)C(Cl)=C1Cl
category: active
//
molecule: Cc1c(N)ccc(O)c1C
category: active
//
molecule: CNC(=O)CCC(NC(=O)OC(C)(C)C)C(=O)NC(Cc1ccc([N+](=O)[O-])cc1)C(=O)NCC(=O)NC (stereo not drawn) (Boc-Glu(NHMe)-[Phe(4-NO2)]-Gly-NHMe; configuration not given here)
category: inactive
//
molecule: Nc1n[nH]c(=O)c2cccnc12
category: inactive
//
molecule: CCCCOC(=O)C(=O)/C(=C/N1C(=O)/C(=C/C(C)=C/c2ccccc2)SC1=S)C(=O)C=C(C)C
category: active
//
molecule: Clc1ccc(/C=N/Nc2c3ccccc3nc3ccccc23)c(Cl)c1
category: active
//
molecule: CC1=C(C(=O)OCCO[N+](=O)[O-])C(c2cccc([N+](=O)[O-])c2)C(C(=O)OC(C)C)=C(C)N1 (stereo not drawn)
category: active
